Assign inhibition to each entry below.
# experimental_target: Tyrosine-protein kinase JAK1 (Homo sapiens);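 note: each value is a mean inhibition of JAK1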
# run_parameters: at 1 µM
One number for each entry, in %.

# mol, experimental_target, unit_text, inhibition
records = [
    ("COc1cc(/C=N/Nc2ncnc3[nH]ncc23)ccc1O", "Tyrosine-protein kinase JAK1 (Homo sapiens)", "%", 9.29),
    ("COc1cc(Nc2nccc(Nc3ccc4c(C)n[nH]c4c3)n2)cc(OC)c1OC", "Tyrosine-protein kinase JAK1 (Homo sapiens)", "%", 66.5),
    ("FC(F)(F)c1cccc(-c2nn3ncccc3c2-c2ccnc(Nc3ccc4c(c3)OCCO4)n2)c1", "Tyrosine-protein kinase JAK1 (Homo sapiens)", "%", -0.53),
    ("COc1ccc2c(-c3ccnc(Nc4cccc(OC(F)(F)F)c4)n3)cnn2n1", "Tyrosine-protein kinase JAK1 (Homo sapiens)", "%", 13),
]

Dear reader, for each entry below, please note its inhibition.
1. COc1ccc(-c2cc(-c3c[nH]nc3-c3ccccn3)ccn2)cc1
2. CNC(=O)c1cncc(/C=C/c2ccccc2Cl)c1
3. COC(=O)Nc1nc2ccc(Oc3ccc(NC(=O)Nc4cccc(Cl)c4)cc3)cc2[nH]1

1: 7.4; 2: 10.6; 3: 4.07

Hello, I would appreciate it if you could give inhibition for each entry below.
1. NS(=O)(=O)c1ccc(Nc2ncc(-c3ccccc3)o2)cc1
2. NC(=O)c1sc(-n2cnc3ccc(C(F)(F)F)cc32)cc1OCc1ccccc1Br
3. CC(=O)Nc1cccc(C#Cc2cncnc2Nc2ccc(OCc3cccc(F)c3)c(Cl)c2)c1
4. c1ccc(-c2nc3n(c2-c2ccc4c(c2)OCO4)CCC3)nc1

[5.63, 10.6, 3.66, 4.78]

State recorded inhibition for all listed compounds.
1. Nc1ncc(-c2cccc(S(N)(=O)=O)c2)c2scc(-c3ccc(F)c(Cl)c3)c12
2. CCOc1ccc2c(-c3ccnc(Nc4cccc(C(F)(F)F)c4)n3)cnn2n1
3. CCc1nn2ncccc2c1-c1ccnc(NC2CC2)n1

1. 6.91
2. 5.28
3. 0.58

---

# experimental_target: Serine/threonine-protein kinase Sgk1 (Homo sapiens);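 note: mean percent inhibition of SGK1, from the GSK PKIS screening panel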
# run_parameters: at 1 µM
measurement_name: inhibition

# mol, observed
rows = [
    ("O=C(O[C@H]1CN[C@H](C#Cc2cc3ncnc(Nc4ccc(Cc5ccccc5)cc4)c3s2)C1)N1CCOCC1", "1.98%"),
    ("COc1ccc(-c2oc3ncnc(N)c3c2-c2ccc(NC(=O)Nc3cc(C(F)(F)F)ccc3F)cc2)cc1", "8.65%"),
]

Each compound below has a reported value. Please supply its inhibition.
1. c1ccc(-c2nc3n(c2-c2ccc4c(c2)OCO4)CCC3)nc1
2. COC(=O)c1sc(-n2cnc3cc(OC)c(OC)cc32)cc1OCc1ccccc1C(F)(F)F
3. CN(C)CCOc1ccc(-c2nc(-c3ccncc3)c(-c3ccc4c(c3)CC/C4=N\O)[nH]2)cc1
4. N#Cc1c(NC(=O)CN2CCOCC2)sc2c1CCCC2
5. c1ccc(COc2ccc(Nc3ncnc4ccc(-c5ccco5)cc34)cc2)cc1
6. CS(=O)(=O)CCNCc1ccc(-c2ccc3ncnc(Nc4ccc(OCc5ccccc5)c(C(F)(F)F)c4)c3c2)o1

1: 3.45%; 2: 4.04%; 3: 4.78%; 4: 5.76%; 5: 0.51%; 6: 3.03%

For each entry beneath this line, provide reported inhibition.
1. c1cc(-c2cnn3nc(N4CCOCC4)ccc23)nc(NC2CC2)n1
2. CCNC(=O)O[C@H]1CN[C@H](C#Cc2cc3ncnc(Nc4ccc(OCc5cccc(F)c5)c(Cl)c4)c3s2)C1
3. Cc1cccc(Nc2ncc(-c3ccccc3)o2)c1
4. Nc1ncc(-c2cccc(S(N)(=O)=O)c2)c2scc(-c3ccc(F)c(Cl)c3)c12

["3.4%", "-0.58%", "2.62%", "2.35%"]

Data provenance is ChEMBL document CHEMBL1961873.
